target: Cytochrome P450 1A2 (Homo sapiens) (UniProt P05177); assay: Cytochrome panel assay with activity outcomes; settings: recombinant CYP, pro-luciferin dealkylation, luminescence, p450-cyp1a2; series mostly up to 57.1 µM; on activity, negative = inhibition: on the % scale 0 is the no-effect control and ±100 the full control effect
Sequence (P05177 whole entry, looked up): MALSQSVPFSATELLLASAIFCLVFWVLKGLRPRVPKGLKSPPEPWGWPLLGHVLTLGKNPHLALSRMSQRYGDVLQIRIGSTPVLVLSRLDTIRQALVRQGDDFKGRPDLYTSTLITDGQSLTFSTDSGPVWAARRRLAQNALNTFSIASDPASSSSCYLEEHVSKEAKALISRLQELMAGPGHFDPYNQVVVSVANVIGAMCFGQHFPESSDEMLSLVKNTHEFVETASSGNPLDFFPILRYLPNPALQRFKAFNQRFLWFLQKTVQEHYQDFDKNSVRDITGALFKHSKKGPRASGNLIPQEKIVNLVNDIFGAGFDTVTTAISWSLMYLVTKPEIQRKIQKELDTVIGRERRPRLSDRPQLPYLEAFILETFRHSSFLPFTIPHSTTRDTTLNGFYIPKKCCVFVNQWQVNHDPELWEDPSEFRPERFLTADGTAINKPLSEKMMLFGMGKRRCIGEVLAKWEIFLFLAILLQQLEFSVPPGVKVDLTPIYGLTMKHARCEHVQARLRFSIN
The whole screen tested about 16,000 compounds, of which about 5,700 (36%) were called active. Roughly 24% stayed inconclusive and do not appear here. This is one part of the list.
Metric name: activity, negative = inhibition

{"Smiles input": "CCCNC(=O)OC[C@@H]1O[C@H](CCO/N=C(\\C)CCN2CCCc3nc(C)c(C)cc32)C=C[C@@H]1Oc1ccc(OC)cc1", "Experimental result": "0.587% [at 11.4 µM] (inactive)"}
{"Smiles input": "CCOC(=O)N/N=C1/C[C@@H](O)[C@@H](O)[C@@H]2[C@@H]3C(=O)N([C@@H](C)c4ccccc4)C(=O)[C@H]3CC[C@@H]12", "Experimental result": "3.79% [at 11.4 µM] (inactive)"}
{"Smiles input": "CSc1ncnc2c1ncn2[C@@H]1O[C@@H](CO)[C@H](O)O[C@@H]1O", "Experimental result": "-5.22% [at 2.29 µM] (inactive)"}

---

Molecular target: Cytochrome P450 1A2 (Homo sapiens)
Experiment: Cytochrome panel assay with activity outcomes
Conditions: recombinant CYP, pro-luciferin dealkylation, luminescence, p450-cyp1a2; series mostly up to 57.1 µM
Experimental: The P450 gene superfamily is involved in the metabolism and clearance of xenobiotics. This assay used various human CYP P450 isozymes to measure the dealkylation of various pro-luciferin substrates to luciferin. The luciferin is then measured by luminescence after the addition of a luciferase detection reagent. […] Inhibitors and some substrates limit the production of luciferin, and decrease measured luminescence. […] 8, Detection, 1 sec, ViewLux luminescent read […]
Among all 16,000 compounds or so, about 5,700 (36%) were called active. Not shown: some 24% with an inconclusive outcome. The call rests on the fitted dose curve; in most records, active means well fitted curve in the direction sought with a large enough effect; inconclusive means small, poorly fitted or top-dose-only effect, or effect the other way; inactive means no such curve, though single readings can be large or run the other way. The list shows a part of the results.
Possible outcomes: t = active, f = inactive

{"Molecule": "c1nc(N2CCNCC2)c2cc(-c3ccc4c(c3)OCO4)ccc2n1", "Target under test": "Cytochrome P450 1A2 (Homo sapiens)", "Assigned class": "t"}
{"Molecule": "O=c1c(-c2ccccc2)nc2cnc(N3CCOCC3)nc2n1C[C@H]1CCCO1", "Target under test": "Cytochrome P450 1A2 (Homo sapiens)", "Assigned class": "t"}
{"Molecule": "O=c1c(-c2ccc(Cl)cc2)nc2cnc(N3CCOCC3)nc2n1C[C@H]1CCCO1", "Target under test": "Cytochrome P450 1A2 (Homo sapiens)", "Assigned class": "t"}
{"Molecule": "CCOC(=O)C(=CNc1cccc(C)c1C)C(=O)OCC", "Target under test": "Cytochrome P450 1A2 (Homo sapiens)", "Assigned class": "f"}
{"Molecule": "O=c1c(-c2cccs2)nc2cnc(N3CCOCC3)nc2n1-c1ccccc1", "Target under test": "Cytochrome P450 1A2 (Homo sapiens)", "Assigned class": "t"}
{"Molecule": "OCCN(Cc1ccccc1)Cc1cccc(Cl)c1Cl", "Target under test": "Cytochrome P450 1A2 (Homo sapiens)", "Assigned class": "t"}
{"Molecule": "CN1CCN(c2ncnc3ccc(-c4ccc(C(=O)N(C)C)cc4)cc23)CC1", "Target under test": "Cytochrome P450 1A2 (Homo sapiens)", "Assigned class": "f"}
{"Molecule": "Cc1ccc(CNC(=O)C2(NC(=O)Nc3ccc(C)cc3)CCCCC2)cc1", "Target under test": "Cytochrome P450 1A2 (Homo sapiens)", "Assigned class": "f"}
{"Molecule": "O=c1c(-c2ccc(F)cc2)nc2cnc(N3CCOCC3)nc2n1C[C@H]1CCCO1", "Target under test": "Cytochrome P450 1A2 (Homo sapiens)", "Assigned class": "t"}
{"Molecule": "O=c1c(-c2ccccc2)nc2cncnc2n1Cc1ccccc1Cl", "Target under test": "Cytochrome P450 1A2 (Homo sapiens)", "Assigned class": "t"}
{"Molecule": "COc1ccc(N2CC(C(=O)OCC(=O)c3cccc(OC)c3)CC2=O)cc1 (centres undefined)", "Target under test": "Cytochrome P450 1A2 (Homo sapiens)", "Assigned class": "t"}
{"Molecule": "O=C(CN1C(=O)c2ccccc2C1=O)NCC(=O)OCC(=O)c1ccc(Br)cc1", "Target under test": "Cytochrome P450 1A2 (Homo sapiens)", "Assigned class": "f"}
{"Molecule": "CC(=O)Nc1ccc(Sc2ncccc2C(=O)Nc2ccc(F)cc2)cn1", "Target under test": "Cytochrome P450 1A2 (Homo sapiens)", "Assigned class": "f"}
{"Molecule": "COCCCNC(=O)/C=C/c1ccc(Cl)cc1", "Target under test": "Cytochrome P450 1A2 (Homo sapiens)", "Assigned class": "t"}
{"Molecule": "O=C(NCc1ccccc1)c1cccc(COc2cccc(Cl)c2)c1", "Target under test": "Cytochrome P450 1A2 (Homo sapiens)", "Assigned class": "t"}
{"Molecule": "CC(c1ccc(Cl)cc1)n1c(-c2ccc3ccccc3n2)n[nH]c1=S (centres undefined)", "Target under test": "Cytochrome P450 1A2 (Homo sapiens)", "Assigned class": "t"}
{"Molecule": "CN(C)c1ncc2ncc(=O)n(C)c2n1", "Target under test": "Cytochrome P450 1A2 (Homo sapiens)", "Assigned class": "t"}
{"Molecule": "COc1cc(NC(=S)Nc2ccc(S(=O)(=O)N3CCOCC3)cc2)cc(OC)c1OC", "Target under test": "Cytochrome P450 1A2 (Homo sapiens)", "Assigned class": "t"}
{"Molecule": "O=C(/C=C/c1ccc(Cl)cc1)NCCN1CCOCC1", "Target under test": "Cytochrome P450 1A2 (Homo sapiens)", "Assigned class": "f"}
{"Molecule": "CN1CCN(c2ncnc3ccc(-c4ccc5c(c4)OCO5)cc23)CC1", "Target under test": "Cytochrome P450 1A2 (Homo sapiens)", "Assigned class": "t"}
{"Molecule": "CN(C)c1ncc2ncc(=O)n(C3CC3)c2n1", "Target under test": "Cytochrome P450 1A2 (Homo sapiens)", "Assigned class": "t"}
{"Molecule": "Cc1cc(NC(=O)C2C3C(=O)N(Cc4ccc(Cl)cc4)C(C(=O)NC(C)(C)C)C34C=CC2(C)O4)no1 (centres undefined)", "Target under test": "Cytochrome P450 1A2 (Homo sapiens)", "Assigned class": "f"}
{"Molecule": "O=c1c(-c2ccc(F)c(F)c2)nc2cncnc2n1Cc1ccccc1Cl", "Target under test": "Cytochrome P450 1A2 (Homo sapiens)", "Assigned class": "t"}
{"Molecule": "CCOC(=O)c1cc2c(=O)n3ccccc3nc2n(CCCOC)c1=NC(C)=O", "Target under test": "Cytochrome P450 1A2 (Homo sapiens)", "Assigned class": "t"}
{"Molecule": "CCOC(=O)C(=CNc1ncccc1C)C(=O)OCC", "Target under test": "Cytochrome P450 1A2 (Homo sapiens)", "Assigned class": "t"}
{"Molecule": "O=C(/C=C/c1cccc(Cl)c1)Nc1ccncc1", "Target under test": "Cytochrome P450 1A2 (Homo sapiens)", "Assigned class": "t"}
{"Molecule": "Cc1ccc(C)c(NC(=O)C2(C)CC3c4ccccc4C2c2ccccc23)c1 (centres undefined)", "Target under test": "Cytochrome P450 1A2 (Homo sapiens)", "Assigned class": "f"}
{"Molecule": "O=C(/C=C/c1ccccc1)NNC(=O)c1cccnc1", "Target under test": "Cytochrome P450 1A2 (Homo sapiens)", "Assigned class": "f"}
{"Molecule": "O=C(c1cc(C(F)(F)F)cc(C(F)(F)F)c1)N1CCC[C@@]2(CCN(c3ncccn3)C2)C1", "Target under test": "Cytochrome P450 1A2 (Homo sapiens)", "Assigned class": "f"}

Source of measurements: PubChem BioAssay AID1851
